# assay-explanation: Clearance in rat
# Type: ADME
# experimental-setup: in vivo
quantity-name: clearance (mL/min/kg)
Report the figure in mL/min/kg without appending any unit label.

Tell me measured clearance for "Oc1cccc(CCN(CC2CCC2)C2CN(Cc3ccccc3)C2)c1" please.
45

----------
# assay-explanation: in vivo
# experimental-setup: rat, po
quantity-name: bioavailability

Tell me measured bioavailability for "Oc1cccc(CCN(CC2CCC2)C2CN(Cc3ccccc3)C2)c1" please.
< 1%

----------
# assay-explanation: in vitro
# experimental-setup: rat, liver microsomes
quantity-name: remaining at 0.5 h (%)
Report the figure in % without appending any unit label.

Tell me measured remaining at 0.5 h for "c1ccc(CCN(CCc2ccc3nc[nH]c3c2)CC2CC2)cc1" please.
3

----------
# assay-explanation: in vitro
# experimental-setup: dog, MDCK-MDR1
quantity-name: Papp A→B (×10⁻⁶ cm/s)
Report the figure in ×10⁻⁶ cm/s without appending any unit label.

Tell me measured Papp A→B for "c1ccc(CCN(CCc2ccc3nc[nH]c3c2)CC2CC2)cc1" please.
5.5

----------
# assay-explanation: in vitro
# experimental-setup: rat, liver microsomes
quantity-name: remaining at 0.25 h

Tell me measured remaining at 0.25 h for "O=c1[nH]c2ccc(CCN(CCc3ccccc3)CC3CCC3)cc2[nH]1" please.
< 5%

Tell me measured remaining at 0.25 h for "c1ccc(CCN(CCc2ccc3nc[nH]c3c2)CC2CC2)cc1" please.
< 5%

Tell me measured remaining at 0.25 h for CC(Cc1ccc2nc[nH]c2c1)N(CCc1ccccc1)CC1CC1 (stereo not drawn) please.
10%

----------
Please provide measured hepatocyte CLint for the entries that follow.
# assay-explanation: in vitro
# experimental-setup: human, hepatocytes
Report the figure in µL/min/1e6 cells without appending any unit label.

Tell me measured hepatocyte CLint for "c1ccc(CCN(CCc2ccc3nc[nH]c3c2)CC2CC2)cc1" please.
16.7

Tell me measured hepatocyte CLint for CC(Cc1ccc2nc[nH]c2c1)N(CCc1ccccc1)CC1CC1 (configuration not stated) please.
22.1

----------
# assay-explanation: in vitro
# experimental-setup: human, liver microsomes
Please provide measured remaining at 0.25 h for the entries that follow.
Report the figure in % without appending any unit label.

Tell me measured remaining at 0.25 h for "c1ccc(CCN(CCc2ccc3nc[nH]c3c2)CC2CC2)cc1" please.
77

Tell me measured remaining at 0.25 h for CC(Cc1ccc2nc[nH]c2c1)N(CCc1ccccc1)CC1CC1 (stereo not given) please.
70

Tell me measured remaining at 0.25 h for "O=c1[nH]c2ccc(CCN(CCc3ccccc3)CC3CCC3)cc2[nH]1" please.
66

----------
# assay-explanation: in vivo
# experimental-setup: rat, po, 10 mg/kg
quantity-name: bioavailability (%)
Report the figure in % without appending any unit label.

Tell me measured bioavailability for "c1ccc(CCN(CCc2ccc3nc[nH]c3c2)CC2CC2)cc1" please.
2.7
